Tested on: DENV2
Assay: microbe, parasite or virus in culture
Format: cell-based, Dengue virus 2
Details: Dengue virus, DENV2, Vero 76
RESULT_TYPE: EC50

## Task Fill in the blank: the reported EC50 of O=c1ccn([C@@H]2O[C@](F)(COP3(=O)OCc4ccccc4O3)[C@@H](O)[C@H]2O)c(=O)[nH]1 (stereo partly shown) is ____.
## Result > 230 µM

----------
Settings: female, ICR (CD-1), mouse, in vivo, ip, 10 mg/kg
RESULT_TYPE: Cmax (µM)
Answers are plain numbers, in µM.

## Task Fill in the blank: the reported Cmax of O=c1ccn([C@@H]2O[C@](F)(CO)[C@@H](O)[C@H]2O)c(=O)[nH]1 [EIDD-2749, 4′-fluorouridine] is ____.
## Result 7.7

----------
Test system: BxPc3
Experiment: EIDD-2749 cytotoxicity
Assay type: cell-based
Details: BxPc3 cells
RESULT_TYPE: CC50

## Task Fill in the blank: the reported CC50 of "O=c1ccn([C@@H]2O[C@](F)(CO)[C@@H](O)[C@H]2O)c(=O)[nH]1" is ____.
## Result > 400 µM

----------
Tested on: Parainfluenza virus 3
Test: organism not typed
Format: cell-based
Details: MA104
RESULT_TYPE: pEC50
Numbers only, as −log10 of the molar value.

COMPOUND	pEC50
O=c1ccn([C@@H]2O[C@](F)(CO)[C@@H](O)[C@H]2O)c(=O)[nH]1	4.01

Next compound, pEC50 to be filled in.
## Task Fill in the blank: the reported pEC50 of O=c1ccn([C@@H]2O[C@](F)(COP3(=O)OCc4ccccc4O3)[C@@H](O)[C@H]2O)c(=O)[nH]1 (stereo partly drawn) is ____.
## Result 4.13

----------
Tested on: H9c-2
Assay: EIDD-2749 cytotoxicity
Type: cell-based
Conditions: H9c-2 cells
RESULT_TYPE: CC50

## Task Fill in the blank: the reported CC50 of "O=c1ccn([C@@H]2O[C@](F)(CO)[C@@H](O)[C@H]2O)c(=O)[nH]1" is ____.
## Result > 400 µM

----------
System: Tacaribe virus
Assay: microbe, parasite or virus in culture
Type: cell-based
Settings: Tacaribe virus strain TRVL 11573, Vero cells
RESULT_TYPE: EC50 (nM)
Numbers only, in nM.

## Task Fill in the blank: the reported EC50 of O=c1ccn([C@@H]2O[C@](F)(CO)[C@@H](O)[C@H]2O)c(=O)[nH]1 [EIDD-2749, 4′-fluorouridine] is ____.
## Result 340

----------
Tested on: RSV
Experiment: microbe, parasite or virus in culture
Assay type: cell-based
Conditions: human respiratory syncytial virus, MA104
RESULT_TYPE: EC50

## Task Fill in the blank: the reported EC50 of "CC(C)OC(=O)[C@H](C)N[P@](=O)(OC[C@@]1(F)O[C@@H](n2ccc(=O)[nH]c2=O)[C@H](O)[C@@H]1O)Oc1ccccc1" is ____.
## Result > 32 µM

----------
System: Punta Toro virus
Experiment: microbe, parasite or virus in culture
Format: cell-based
Conditions: Punta Toro virus, Vero 76
RESULT_TYPE: pEC50
Give bare numbers, as −log10 of the molar value.

MOLECULE	pEC50
O=c1ccn([C@@H]2O[C@](F)(CO)[C@@H](O)[C@H]2O)c(=O)[nH]1 [EIDD-2749, 4′-fluorouridine]	4.14

Next molecule, pEC50 to be filled in.
## Task Fill in the blank: the reported pEC50 of O=c1ccn([C@@H]2O[C@](F)(COP3(=O)OCc4ccccc4O3)[C@@H](O)[C@H]2O)c(=O)[nH]1 (some centres unmarked) [EIDD-2838] is ____.
## Result 5.21

----------
System: Flu A H7N9 (High Path)
Assay: microbe, parasite or virus in culture
Assay type: cell-based, influenza A virus
Conditions: Influenza A virus, H7N9, MDCK
RESULT_TYPE: EC50 (µM)
Answers are plain numbers, in µM.

## Task Fill in the blank: the reported EC50 of O=c1ccn([C@@H]2O[C@](F)(COP3(=O)OCc4ccccc4O3)[C@@H](O)[C@H]2O)c(=O)[nH]1 (stereo partly shown) is ____.
## Result 5.29

----------
Assay: Liver microsome stability
Details: both, human, liver microsomes, pH 7.4
RESULT_TYPE: half-life at 1 μM (min)
Answers are plain numbers, in min.

## Task Fill in the blank: the reported half-life at 1 μM of "CC(C)C(=O)OC[C@@]1(F)O[C@@H](n2ccc(=O)[nH]c2=O)[C@H](O)[C@@H]1O" is ____.
## Result 44

----------
Settings: female, ICR (CD-1), mouse, in vivo, po, 50 mg/kg
RESULT_TYPE: Cmax

## Task Fill in the blank: the reported Cmax of O=c1ccn([C@@H]2O[C@](F)(CO)[C@@H](O)[C@H]2O)c(=O)[nH]1 [EIDD-2749, 4′-fluorouridine] is ____.
## Result 35.2 µM

----------
Test system: Junin virus
Assay: microbe, parasite or virus in culture
Format: cell-based
Settings: Junin virus strain Candid #1, Vero cells
RESULT_TYPE: EC50 (nM)
One number for each entry, in nM.

## Task Fill in the blank: the reported EC50 of O=c1ccn([C@@H]2O[C@](F)(CO)[C@@H](O)[C@H]2O)c(=O)[nH]1 [EIDD-2749, 4′-fluorouridine] is ____.
## Result 1290

----------
Conditions: female, ICR (CD-1), mouse, in vivo, po, 500 mg/kg
RESULT_TYPE: Cmax (µM)
One number for each entry, in µM.

## Task Fill in the blank: the reported Cmax of O=c1ccn([C@@H]2O[C@](F)(CO)[C@@H](O)[C@H]2O)c(=O)[nH]1 [EIDD-2749, 4′-fluorouridine] is ____.
## Result 76

----------
System: Influenza A H1N1
Assay: microbe, parasite or virus in culture
Format: cell-based, influenza A virus
Settings: Influenza A virus, H1N1, MDCK
RESULT_TYPE: pEC50
One number for each entry, as −log10 of the molar value.

Kindly give each listed record's pEC50.
1. CC(C)OC(=O)[C@H](C)N[P@](=O)(OC[C@@]1(F)O[C@@H](n2ccc(=O)[nH]c2=O)[C@H](O)[C@@H]1O)Oc1ccccc1
2. O=c1ccn([C@@H]2O[C@](F)(COP3(=O)OCc4ccccc4O3)[C@@H](O)[C@H]2O)c(=O)[nH]1 (stereo partly drawn)

## Result
1: 5.89; 2: 5.64

----------
Test system: WNV
Assay: microbe, parasite or virus in culture
Assay type: cell-based
Conditions: West Nile virus, Vero 76
RESULT_TYPE: EC50

## Task Fill in the blank: the reported EC50 of "CC(C)OC(=O)[C@H](C)N[P@](=O)(OC[C@@]1(F)O[C@@H](n2ccc(=O)[nH]c2=O)[C@H](O)[C@@H]1O)Oc1ccccc1" is ____.
## Result > 32 µM

----------
Test system: SARS-CoV-2
Assay: microbe, parasite or virus in culture
Assay type: cell-based
Conditions: Severe acute respiratory syndrome coronavirus 2, Vero C1008
pEC50: −log10 of the molar value.
RESULT_TYPE: pEC50

## Task Fill in the blank: the reported pEC50 of "CC(C)OC(=O)[C@H](C)N[P@](=O)(OC[C@@]1(F)O[C@@H](n2ccc(=O)[nH]c2=O)[C@H](O)[C@@H]1O)Oc1ccccc1" is ____.
## Result < 4.77

----------
Test: Liver microsome stability
Conditions: male, Sprague-Dawley, rat, liver microsomes, pH 7.4
RESULT_TYPE: half-life at 1 μM (min)
One number for each entry, in min.

## Task Fill in the blank: the reported half-life at 1 μM of CC(C)C(=O)OC[C@@]1(F)O[C@@H](n2ccc(=O)[nH]c2=O)[C@H](O)[C@@H]1O [EIDD-2947] is ____.
## Result 10

----------
Assay: Liver microsome stability
Settings: CD-1, mouse, liver microsomes
RESULT_TYPE: half-life at 1 μM (min)
One number for each entry, in min.

## Task Fill in the blank: the reported half-life at 1 μM of "CC(C)C(=O)OC[C@@]1(F)O[C@@H](n2ccc(=O)[nH]c2=O)[C@H](O)[C@@H]1O" is ____.
## Result 1

----------
Tested on: Flu A H3N2
Test: microbe, parasite or virus in culture
Type: cell-based, influenza A virus
Conditions: Influenza A virus, H3N2, MDCK
RESULT_TYPE: EC50 (nM)
Numbers only, in nM.

## Task Recall the recorded EC50 for O=c1ccn([C@@H]2O[C@](F)(COP3(=O)OCc4ccccc4O3)[C@@H](O)[C@H]2O)c(=O)[nH]1 (some centres unmarked) [EIDD-2838] with Flu A H3N2 and state it.
## Result 970

Taken from patent US20260124226A1.
